List of AUC(0-t) values.
type: in vivo, human; conditions: human, plasma, oral, AUC0–16, geometric mean (mean, %CV); GLE/PIB 300/120 mg Formulation A
State just the number; it will be interpreted in ng·h/mL.

(Q) Find the recorded AUC(0-t) belonging to COC(=O)N[C@H](C(=O)N1CCC[C@H]1c1nc2cc([C@H]3CC[C@H](c4cc5nc([C@@H]6CCCN6C(=O)[C@@H](NC(=O)OC)[C@@H](C)OC)[nH]c5cc4F)N3c3cc(F)c(N4CCC(c5ccc(F)cc5)CC4)c(F)c3)c(F)cc2[nH]1)[C@@H](C)OC [PIB, pibrentasvir] and report it.
(A) 546

(Q) Param item: CC(C)(C)[C@@H]1NC(=O)O[C@@H]2CCC[C@H]2OC/C=C/C(F)(F)c2nc3ccccc3nc2O[C@@H]2C[C@@H](C(=O)N[C@]3(C(=O)NS(=O)(=O)C4(C)CC4)C[C@H]3C(F)F)N(C2)C1=O [GLE, glecaprevir]
(A) 344

----------
List of Cmax values.
type: in vivo, human; conditions: human, plasma, oral, Cmax, geometric mean (mean, %CV); single dose GLE/PIB 300/120 mg Formulation B, fasting, healthy subjects
State just the number; it will be interpreted in ng/mL.

(Q) Find the recorded Cmax belonging to "CC(C)(C)[C@@H]1NC(=O)O[C@@H]2CCC[C@H]2OC/C=C/C(F)(F)c2nc3ccccc3nc2O[C@@H]2C[C@@H](C(=O)N[C@]3(C(=O)NS(=O)(=O)C4(C)CC4)C[C@H]3C(F)F)N(C2)C1=O" and report it.
(A) 330

Continuing:
(Q) Find the recorded Cmax belonging to "COC(=O)N[C@H](C(=O)N1CCC[C@H]1c1nc2cc([C@H]3CC[C@H](c4cc5nc([C@@H]6CCCN6C(=O)[C@@H](NC(=O)OC)[C@@H](C)OC)[nH]c5cc4F)N3c3cc(F)c(N4CCC(c5ccc(F)cc5)CC4)c(F)c3)c(F)cc2[nH]1)[C@@H](C)OC" and report it.
(A) 83.7
